- assayed system: h-GABA-A α5β3γ2 (Homo sapiens, UniProt P18507+P31644)
- Construct: expressed in transfected cells; host or cells: Xenopus laevis oocytes, micro-injected with subunit RNA
- protocol summary: [3H]flumazenil competition binding assay on membranes of HEK293 cells expressing GABAA receptors
- test conditions: Table 1; displacement of [3H]-Flumazenil (0.5 nM), HEK293 cells expressing human receptors, means of two determinations
pKi: −log10 of the molar value.

>  <line notation>
Cn1nnc(-c2ccc(Cl)cc2F)c1Cn1ncc(N2CC(Oc3ccncn3)C2)cc1=O

>  <pKi>
7.95

$$$$
>  <line notation>
Cc1ccc(-c2nnn(C)c2Cn2ncc(N3CCC[C@H]3C)cc2=O)cn1

>  <pKi>
9.10

$$$$
>  <line notation>
CC(C)N1CCN(c2cnn(Cc3c(-c4ccc(Cl)cc4)nnn3C)c(=O)c2)C[C@@H]1C

>  <pKi>
7.69

$$$$
>  <line notation>
CCn1nnc(-c2ccc(Cl)cc2F)c1Cn1ncc(N2CC(Oc3cccnn3)C2)cc1=O

>  <pKi>
7.69

$$$$
